Molecular target: topoisomerase II
Experiment: topoisomerase II activity inhibition assay (isoform not given)

| MOLECULE | IC50 (pM) |
| --- | --- |
| CC[C@@]1(O)C(=O)OCc2c1cc1n(c2=O)Cc2cc3ccccc3nc2-1 [camptothecin] | 520 |
